Target: T1, human Y2 receptor (human, UniProt P49146 1-381)
T1 sequence (looked up): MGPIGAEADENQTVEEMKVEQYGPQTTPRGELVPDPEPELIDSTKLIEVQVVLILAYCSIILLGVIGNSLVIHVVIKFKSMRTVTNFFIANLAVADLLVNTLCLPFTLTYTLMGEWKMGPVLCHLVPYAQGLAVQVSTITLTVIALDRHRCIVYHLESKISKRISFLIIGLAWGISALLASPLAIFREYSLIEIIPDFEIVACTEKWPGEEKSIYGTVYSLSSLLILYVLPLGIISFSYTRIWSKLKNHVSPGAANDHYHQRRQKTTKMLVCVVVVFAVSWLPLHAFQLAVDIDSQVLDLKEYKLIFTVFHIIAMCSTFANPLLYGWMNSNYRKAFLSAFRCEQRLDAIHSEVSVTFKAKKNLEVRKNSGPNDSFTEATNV
Experiment: cell-based or functional assay
Non-standard residues stand in square brackets, D forms with d. No end group written: not given here. 4Amb = NCc1ccc(C(=O)O)cc1
readout_kind: GBA EC50 Ratio (vs PYY(3-36)), [35S]GTPγS (ratio)
Entry rule: numbers only, all in ratio.

Quick one: GBA EC50 Ratio (vs PYY(3-36)), [35S]GTPγS for [4Amb]RAQINLITRQRY-NH2 (N-terminus assumed; SMILES CC[C@H](C)[C@H](NC(=O)[C@H](CCC(N)=O)NC(=O)[C@H](C)NC(=O)[C@H](CCCNC(=N)N)NC(=O)c1ccc(CN)cc1)C(=O)N[C@@H](CC(N)=O)C(=O)N[C@@H](CC(C)C)C(=O)N[C@H](C(=O)N[C@H](C(=O)N[C@@H](CCCNC(=N)N)C(=O)N[C@@H](CCC(N)=O)C(=O)N[C@@H](CCCNC(=N)N)C(=O)N[C@@H](Cc1ccc(O)cc1)C(N)=O)[C@@H](C)O)[C@@H](C)CC, also called compound No. 30) [4-Aminomethylbenzoyl-[Ala26, Gln27, Ile28,31]-PYY(25-36)] ?
14

One more binder: [4Amb]KAYINLITRQRY-NH2 (N-terminus assumed; SMILES CC[C@H](C)[C@H](NC(=O)[C@H](Cc1ccc(O)cc1)NC(=O)[C@H](C)NC(=O)[C@H](CCCCN)NC(=O)c1ccc(CN)cc1)C(=O)N[C@@H](CC(N)=O)C(=O)N[C@@H](CC(C)C)C(=O)N[C@H](C(=O)N[C@H](C(=O)N[C@@H](CCCNC(=N)N)C(=O)N[C@@H](CCC(N)=O)C(=O)N[C@@H](CCCNC(=N)N)C(=O)N[C@@H](Cc1ccc(O)cc1)C(N)=O)[C@@H](C)O)[C@@H](C)CC, also called compound No. 49) [4-Aminomethylbenzoyl-[Lys25, Ala26, Ile28,31]-PYY(25-36)]
24

These measurements were taken from patent US20120172293A1.
